Recorded pIC50 values for a group of compounds are listed next.
EXPERIMENTAL_SYSTEM: P. falciparum apicoplast DNA polymerase (Pf-apPOL) (Plasmodium falciparum, UniProt Q8ILY1)
Sequence (Q8ILY1 entry or part of it): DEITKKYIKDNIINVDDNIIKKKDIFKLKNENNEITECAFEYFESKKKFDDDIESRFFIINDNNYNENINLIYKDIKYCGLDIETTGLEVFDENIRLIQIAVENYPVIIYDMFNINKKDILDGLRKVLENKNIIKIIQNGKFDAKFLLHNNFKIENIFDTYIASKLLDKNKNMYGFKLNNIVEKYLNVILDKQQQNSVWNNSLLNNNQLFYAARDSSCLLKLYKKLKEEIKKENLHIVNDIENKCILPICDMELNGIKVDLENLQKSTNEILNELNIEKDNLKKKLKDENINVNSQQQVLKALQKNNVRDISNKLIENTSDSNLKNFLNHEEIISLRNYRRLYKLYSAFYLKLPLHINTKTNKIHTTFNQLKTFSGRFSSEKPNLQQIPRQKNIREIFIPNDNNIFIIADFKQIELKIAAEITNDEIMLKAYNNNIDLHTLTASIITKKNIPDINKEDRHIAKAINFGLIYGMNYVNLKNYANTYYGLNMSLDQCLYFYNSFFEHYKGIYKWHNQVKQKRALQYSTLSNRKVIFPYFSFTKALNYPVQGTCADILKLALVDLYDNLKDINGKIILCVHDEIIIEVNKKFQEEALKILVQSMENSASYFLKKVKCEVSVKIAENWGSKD
TEST_DETAILS: Fluorescence-based high-throughput DNA polymerase assay (molecular beacon), primary screen and dose-response
Type: biochemical
CONDITIONS: supplemental file 2, sheet IC50 nontoxic compounds; Pf-apPOL
From the text: The HT assay employs a molecular beacon, a stem-loop DNA template with a Cy3 dye and the Black Hole Quencher on the 3′ and 5′ ends of the DNA, respectively. Pf-apPOL concentration is based on a calculated absorptivity of ε280 = 56750 M^−1 cm^−1. […] To identify apPOL inhibitors we utilised our previously developed high-throughput DNA polymerase assay. […] The assay accurately recapitulates the kinetic behaviour of apPOL, as measured through more conventional low-throughput gel-based assays. […]
API: returns pIC50 as number; meaning -log10 of concentration in mol/L.

Example cases with answers are listed next.
COMPOUND: O=C(O)CC1SC(c2ccc3c(c2)OCO3)=NC1=O (stereo not drawn)
pIC50: 4.53

COMPOUND: Oc1ccc(N=Nc2ccccc2)c(O)c1
pIC50: 4.43

COMPOUND: O=C(Cn1ccc2c(=O)[nH]ccc21)Nc1ccc(Cl)cc1
pIC50: 4.89

(Q) Can you share its pIC50? I mean this compound: Cc1ccc(NC(=O)Cn2ccc3c(=O)[nH]ccc32)cc1F
(A) 4.81

(Q) Can you share its pIC50? I mean this compound: COC(=O)c1sc(-c2ccc(C(C)(C)C)cc2)cc1NC(=O)CCC(=O)O
(A) 5.05

(Q) Can you share its pIC50? I mean this compound: O=C(Nc1nnc(-c2cccs2)o1)c1ccc([N+](=O)[O-])o1
(A) 4.51

(Q) Can you share its pIC50? I mean this compound: Cn1nc(C(=O)N2CCc3c(nc4cc(-c5ccccc5)[nH]n4c3=O)C2)c2ccccc21
(A) 5.20

(Q) Can you share its pIC50? I mean this compound: COc1ccc(NC(=O)Cn2nc3c(cc2=O)CCC3)cc1Cl
(A) 5.28

(Q) Can you share its pIC50? I mean this compound: CC(=O)OCC1=C(C(=O)[O-])N2C(=O)[C@@H](NC(=O)Cc3cccs3)[C@H]2SC1.[Na+]
(A) 4.78
